The measurements presented in this section are drawn from patent US10800789B2.

Tested on: stable HCV 2a JFH-1 Rluc replicon cells (L31 present in NS5A)
Experiment Summary: Renilla luciferase HCV replicon reporter assay, genotype 2a JFH-1
Format: cell-based
Recorded Conditions: Hepatitis C virus, read-out: 2a JFH (nM), genotype 2a JFH-1 replicon (L31 in NS5A), stable cells
Please use t for EC50 under 0.02 nM and f for everything else, ties included.

Given COC(=O)NC(C(=O)N1[C@@H](C)CC[C@H]1c1nc2ccc3cc4c(cc3c2[nH]1)OCc1cc(-c2cnc([C@@H]3CC[C@H](C)N3C(=O)[C@@H](NC(=O)OC)C3CCOCC3)[nH]2)ccc1-4)C1CCOCC1 (some centres unmarked) , is recorded EC50 strictly lower than 0.02 nM?
t

Follow-up entry: `COC[C@H]1C[C@@H](c2ncc(-c3ccc4c(c3)COc3cc5c(ccc6nc([C@@H]7CC[C@H](C)N7C(=O)[C@@H](NC(=O)OC)C(C)C)[nH]c65)cc3-4)[nH]2)N(C(=O)[C@@H](NC(=O)OC)C2CCOCC2)C1`
f

Now consider `CC[C@H](C)[C@H](NC(=O)OC)C(=O)N1[C@@H](C)CC[C@H]1c1ncc(-c2ccc3c(c2)COc2cc4c(ccc5nc([C@@H]6CC[C@H](C)N6C(=O)[C@@H](NC(=O)OC)[C@@H](C)CC)[nH]c54)cc2-3)[nH]1` .
t

Subsequent entry: `COC(=O)N[C@H](C(=O)N1[C@@H](C)CC[C@H]1c1nc2ccc3cc4c(cc3c2[nH]1)OCc1cc(-c2cnc([C@@H]3[C@@H]5C[C@@H]5CN3C(=O)[C@@H](NC(=O)OC)[C@@H](C)OC)[nH]2)ccc1-4)C(C)C`
t

What would you report for `COC(=O)N[C@H](C(=O)N1CCC[C@H]1c1ncc(-c2ccc3c(c2)COc2cc4c(ccc5nc([C@@H]6CCCN6C(=O)[C@@H](NC(=O)OC)[C@@H](C)OC)[nH]c54)cc2-3)[nH]1)[C@@H](C)OC` ?
f

Subsequent entry: `COC[C@H]1C[C@@H](c2ncc(-c3ccc4c(c3)COc3cc5c(ccc6nc([C@@H]7CC[C@H](C)N7C(=O)[C@@H](NC(=O)OC)[C@@H](C)OC)[nH]c65)cc3-4)[nH]2)N(C(=O)[C@@H](NC(=O)OC)[C@@H](C)OC)C1`
f

Check `COC(=O)N[C@H](C(=O)N1[C@@H](C)CC[C@H]1c1ncc(-c2ccc3c(c2)COc2cc4c(ccc5nc([C@@H]6C[C@H](C)CN6C(=O)[C@@H](NC(=O)OC)C6CCOCC6)[nH]c54)cc2-3)[nH]1)C(C)C` too.
f

Also `COC(=O)N[C@H](C(=O)N1[C@H](c2ncc(-c3ccc4c(c3)COc3cc5c(ccc6nc([C@@H]7C[C@@H]8CCC[C@@H]8N7C(=O)[C@@H](NC(=O)OC)C7CCOCC7)[nH]c65)cc3-4)[nH]2)C[C@@H]2CCC[C@@H]21)C(C)C` , if possible.
t

Entry `CC[C@H]1CC[C@@H](c2ncc(-c3ccc4c(c3)COc3cc5c(ccc6nc([C@@H]7C[C@H](COC)CN7C(=O)[C@@H](NC(=O)OC)C(C)C)[nH]c65)cc3-4)[nH]2)N1C(=O)[C@@H](NC(=O)OC)C(C)C` please
f

Also, `CC[C@H](C)[C@H](NC(=O)OC)C(=O)N1[C@@H](C)CC[C@H]1c1nc2ccc3cc4c(cc3c2[nH]1)OCc1cc(-c2cnc([C@@H]3C[C@H](COC)CN3C(=O)[C@@H](NC(=O)OC)C(C)C)[nH]2)ccc1-4` please.
f

Now the same for COC(=O)NC(C(=O)N1[C@@H](C)CC[C@H]1c1nc2ccc3cc4c(cc3c2[nH]1)OCc1cc(-c2cnc([C@@H]3CC[C@H](C)N3C(=O)[C@@H](NC(=O)OC)C3CCOCC3)[nH]2)ccc1-4)C(C)C (some centres unmarked)
t

Please do the same for `CC[C@H](C)[C@H](NC(=O)OC)C(=O)N1[C@@H](C)CC[C@H]1c1ncc(-c2ccc3c(c2)COc2cc4c(ccc5nc([C@@H]6CC[C@H](C)N6C(=O)[C@@H](NC(=O)OC)[C@@H](C)OC)[nH]c54)cc2-3)[nH]1` as well.
t

Quick one: `COC(=O)N[C@@H](C)C(=O)N1[C@@H](C)CC[C@H]1c1ncc(-c2ccc3c(c2)COc2cc4c(ccc5nc([C@@H]6CC[C@H](C)N6C(=O)[C@H](C)NC(=O)OC)[nH]c54)cc2-3)[nH]1`
f

What about `CC[C@H](C)[C@H](NC(=O)OC)C(=O)N1[C@@H](C)CC[C@H]1c1ncc(-c2ccc3c(c2)COc2cc4c(ccc5nc([C@@H]6C[C@@H]7CCC[C@@H]7N6C(=O)[C@@H](NC(=O)OC)C6CCOCC6)[nH]c54)cc2-3)[nH]1` ?
f

Item: `COC(=O)N[C@H](C(=O)N1C[C@@H](C)C[C@H]1c1ncc(-c2ccc3c(c2)COc2cc4c(ccc5nc([C@@H]6CC[C@H](C)N6C(=O)[C@@H](NC(=O)OC)[C@@H](C)OC)[nH]c54)cc2-3)[nH]1)C(C)C`
t

What about `CC[C@H]1CC[C@@H](c2nc3ccc4cc5c(cc4c3[nH]2)OCc2cc(-c3cnc([C@@H]4C[C@@H]6CCC[C@@H]6N4C(=O)[C@@H](NC(=O)OC)[C@@H](C)CC)[nH]3)ccc2-5)N1C(=O)[C@@H](NC(=O)OC)C1CCOCC1` ?
f

Try this compound next: `COC(=O)N[C@H](C(=O)N1[C@@H](C)CC[C@H]1c1ncc(-c2ccc3c(c2)COc2cc4c(ccc5nc([C@@H]6CC[C@H](C)N6C(=O)[C@@H](NC(=O)OC)[C@H](C)OC)[nH]c54)cc2-3)[nH]1)C(C)C`
f

----------
Test system: NS5A chimeric genotype 2a JFH-1 replicon with genotype 2b MD2b-1 strain NS5A gene (M31 present)
Experiment Summary: Replicon assay, genotype 2b NS5A chimera
Assay type: cell-based, HCV
Recorded Conditions: Hepatitis C virus, read-out: 2b (s) (nM), genotype 2b MD2b-1 NS5A chimeric replicon (M31), stably replicating replicon cells (s)
Can you tell me EC50 for the items I'm about to list?
Don't forget the unit after the number, please.

Suppose we examine the compound COC(=O)N[C@H](C(=O)N1C[C@@H](C)C[C@H]1c1nc2ccc3cc4c(cc3c2[nH]1)OCc1cc(-c2cnc([C@@H]3CC[C@H](C)N3C(=O)[C@@H](NC(=O)OC)[C@@H](C)OC)[nH]2)ccc1-4)C(C)C [GA] ; what EC50 value has been reported?
0.245 nM

Also check COC(=O)N[C@H](C(=O)N1[C@@H](C)CC[C@H]1c1nc2ccc3cc4c(cc3c2[nH]1)OCc1cc(-c2cnc([C@@H]3C[C@H](F)CN3C(=O)[C@@H](NC(=O)OC)[C@@H](C)OC)[nH]2)ccc1-4)C(C)C [HU]
3.56 nM

----------
Assign EC50 to each entry below.
Tested on: NS5A chimeric genotype 2a JFH-1 replicon with genotype 2b MD2b-1 strain NS5A gene (M31 present)
Experiment Summary: Replicon assay, genotype 2b NS5A chimera
Assay type: cell-based, HCV
Recorded Conditions: Hepatitis C virus, read-out: 2b (s) (nM), genotype 2b MD2b-1 NS5A chimeric replicon (M31), stably replicating replicon cells (s)
Report field: quantity (unit follows the number).

For the compound CC[C@H]1C[C@@H](c2nc3ccc4cc5c(cc4c3[nH]2)OCc2cc(-c3cnc([C@@H]4CC[C@H](C)N4C(=O)[C@@H](NC(=O)OC)C(C)C)[nH]3)ccc2-5)N(C(=O)[C@H](C)NC(=O)OC)C1 [HK] , what EC50 is on record?
11.5 nM

Further, for CC[C@H](C)[C@H](NC(=O)OC)C(=O)N1[C@@H](C)CC[C@H]1c1ncc(-c2ccc3c(c2)COc2cc4c(ccc5nc([C@@H]6CC[C@H](C)N6C(=O)[C@@H](NC(=O)OC)C(C)C)[nH]c54)cc2-3)[nH]1 [GL] ?
0.577 nM

What about CC[C@H](C)[C@H](NC(=O)OC)C(=O)N1[C@@H](C)CC[C@H]1c1ncc(-c2ccc3c(c2)COc2cc4c(ccc5nc([C@@H]6CC[C@H](C)N6C(=O)[C@@H](NC(=O)OC)[C@@H](C)OC)[nH]c54)cc2-3)[nH]1 [GF] ?
0.203 nM

What do you have for COC(=O)N[C@H](C(=O)N1[C@@H](C)CC[C@H]1c1ncc(-c2ccc3c(c2)COc2cc4c(ccc5nc([C@@H]6CC[C@H](C)N6C(=O)[C@@H](NC(=O)OC)[C@@H](C)O)[nH]c54)cc2-3)[nH]1)C(C)C [FI] ?
0.152 nM

----------
Could you please report measured pEC50 for the items listed next?
System: Q30R in genotype 1a NS5A (1a Pi-Rluc replicon, Huh-7-derived cured-51 cells)
Experiment Summary: Replicon assay against resistance mutant 1a Q30R
Assay type: cell-based, HCV
Recorded Conditions: Hepatitis C virus, read-out: 1a Q30R
Procedure: Antiviral potency (EC50) was determined using a Renilla luciferase (RLuc)-based HCV replicon reporter assay. […] 72 hours later, cells were lysed and Renilla luciferase activity quantified as recommended by the manufacturer (Promega-Madison, Wis.). […]
pEC50: −log10 of the molar value.

Fill in the blank: the reported pEC50 of `CC[C@H]1CC[C@@H](c2ncc(-c3ccc4c(c3)COc3cc5c(ccc6nc([C@@H]7CC[C@H](C)N7C(=O)[C@@H](NC(=O)OC)C7CCOCC7)[nH]c65)cc3-4)[nH]2)N1C(=O)[C@@H](NC(=O)OC)C(C)C` is ____.
> 10.00

Then this compound: `COC(=O)N[C@H](C(=O)N1[C@@H](C)CC[C@H]1c1nc(C)c(-c2ccc3c(c2)COc2cc4c(ccc5nc([C@@H]6CC[C@H](C)N6C(=O)[C@@H](NC(=O)OC)[C@@H](C)OC)[nH]c54)cc2-3)[nH]1)[C@@H](C)OC`
9.00 to 10.00

Could you do the same for `COC(=O)N[C@H](C(=O)N1[C@@H](C)CC[C@H]1c1ncc(-c2ccc3c(c2)COc2cc4c(ccc5nc([C@@H]6CC[C@H](C)N6C(=O)[C@@H](NC(=O)OC)[C@@H](C)O)[nH]c54)cc2-3)[nH]1)C(C)C` , please?
9.00 to 10.00

Moving on to `CC[C@H]1C[C@@H](c2nc3ccc4cc5c(cc4c3[nH]2)OCc2cc(-c3cnc([C@@H]4CC[C@H](C)N4C(=O)[C@@H](NC(=O)OC)C(C)C)[nH]3)ccc2-5)N(C(=O)[C@@H](NC(=O)OC)C2CCOCC2)C1`
> 10.00

Try COC(=O)NC(C(=O)N1[C@@H](C)CC[C@H]1c1nc2ccc3cc4c(cc3c2[nH]1)OCc1cc(-c2cnc([C@@H]3CC[C@H](C)N3C(=O)[C@@H](NC(=O)OC)C3CCOCC3)[nH]2)ccc1-4)C1CCOCC1 (stereo partly drawn) next.
> 10.00

Also, `COC[C@H]1C[C@@H](c2ncc(-c3ccc4c(c3)c(=O)oc3cc5c(ccc6nc([C@@H]7CC[C@H](C)N7C(=O)[C@@H](NC(=O)OC)C(C)C)[nH]c65)cc34)[nH]2)N(C(=O)[C@H](NC(=O)OC)c2ccccc2)C1` please.
9.00 to 10.00

// next record `CC[C@H](C)[C@H](NC(=O)OC)C(=O)N1[C@@H](C)CC[C@H]1c1ncc(-c2ccc3c(c2)COc2cc4c(ccc5nc([C@@H]6CC[C@H](C)N6C(=O)[C@@H](NC(=O)OC)C6CCOCC6)[nH]c54)cc2-3)[nH]1`
> 10.00

Try this compound next: `CC[C@H]1CC[C@@H](c2ncc(-c3ccc4c(c3)COc3cc5c(ccc6nc([C@@H]7CC[C@H](C)N7C(=O)[C@@H](NC(=O)OC)C(C)C)[nH]c65)cc3-4)[nH]2)N1C(=O)[C@@H](NC(=O)OC)C1CCOCC1`
> 10.00

Try this compound too: `CC[C@H]1CC[C@@H](c2ncc(-c3ccc4c(c3)COc3cc5c(ccc6nc([C@@H]7CC[C@H](C)N7C(=O)[C@@H](NC(=O)OC)[C@@H](C)OC)[nH]c65)cc3-4)[nH]2)N1C(=O)[C@@H](NC(=O)OC)C1CCOCC1`
> 10.00
